# Assay summary: chemical genetic growth profiling, strain panel (AID 1159580);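 further: tested at 20 µM; growth read once vehicle control cultures reached saturation at 30 °C; 1 = growth at the plate median or of vehicle wells; lower values mean less growth of the strain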
# Details: S. cerevisiae deletion strains, growth OD, locus YGR229C, strain SMI1, active compounds read low
In all, about 5,500 compounds went through this assay and about 2,000 (36%) were called active. About 18% were inconclusive and are not listed. The list shows a part of the results.
Measured parameter: normalized growth

Compound: CC(=O)[C@@]1(O)CCC2C3C=C(Cl)C4=CC(=O)[C@@H]5CC5[C@]4(C)C3CC[C@@]21C (stereo partly specified)
normalized growth: 1.01 (inactive)
//
Compound: Cc1ccc(NC(=O)CC#N)c(C)c1
normalized growth: 0.986 (inactive)
//
Compound: Cc1ccc(Sc2nc(C)c([N+](=O)[O-])c(C)c2C#N)cc1
normalized growth: 0.978 (inactive)

# batch: return normalized growth for each of the 3 compounds below
1. Clc1ccc2ocnc2c1
2. CNC[C@H](O)c1cccc(O)c1
3. CC(=O)N1CCN(c2ccc(OC[C@H]3CO[C@](Cn4ccnc4)(c4ccc(Cl)cc4Cl)O3)cc2)CC1

1.01 (inactive)
0.992 (inactive)
0.0746 (active)

* * *

# Assay summary: chemical genetic growth profiling, strain panel (AID 1159580)
# Details: S. cerevisiae deletion strains, growth OD, locus YOR119C, strain RIO1
Out of some 5,500 compounds screened, about 2,000 (36%) were called active. Not shown: some 18% with an inconclusive outcome. No stated cut-off is given here; in the data, active means normalized growth mostly below about 0.91 (no sharp cut-off); inconclusive means no clear call, values can overlap the other calls; inactive means mostly above about 0.92. This is one part of the list.
Pick one: Y = active, N = inactive

Molecule: Clc1cccc(Cl)c1C1CC(c2ccccc2)=Nc2ccccc2S1 (stereo not drawn)
Assigned label: N

Which outcome was entered for the molecule N/C(=N/OC(=O)Nc1cccc(C(F)(F)F)c1)c1ccc(OC(F)(F)F)cc1 in this test?
N

What outcome does the record of this test show for CC(C)(C)NC(=S)N/N=C\c1cc(Br)c(O)c(Br)c1 ?
N

* * *

# Assay summary: chemical genetic growth profiling, strain panel (AID 1159580)
# Details: S. cerevisiae deletion strains, growth OD, locus YDR297W, strain sur2, active compounds read low
Hit rate of the full screen: of about 5,500 compounds, about 2,000 (36%) were called active. About 18% were inconclusive and are not listed. The list shows a part of the results.
Measured parameter: normalized growth
Answers are plain numbers.

Please review the following examples before continuing.
Compound: CCc1ccc2c(O)c3c(cc2c1C(=O)OC)C(=O)c1c(O)ccc(O)c1C3=O
Test value: 0.98
--
Compound: CCC(=O)OCC(=O)[C@@]1(OC(=O)CC)[C@@H](C)CC2C3CCC4=CC(=O)C=C[C@]4(C)C3(F)[C@@H](O)C[C@@]21C (some centres undefined)
Test value: 0.996
--
Compound: CCCCC(=O)O[C@]1(C(=O)CO)[C@@H](C)CC2C3CCC4=CC(=O)C=C[C@]4(C)[C@@]3(F)C(O)C[C@@]21C (some centres undefined)
Test value: 0.975

Name the recorded normalized growth for CCC(=O)OCC(=O)C1(OC(=O)CC)C(C)CC2C3CCC4=CC(=O)C=CC4(C)C3(Cl)C(O)CC21C (centres undefined) .
0.979

* * *

# Assay summary: chemical genetic growth profiling, strain panel (AID 1159580)
# Details: S. cerevisiae deletion strains, growth OD, locus YPL055C, strain LGE1, active compounds read low
In all, about 5,500 compounds went through this assay and about 2,000 (36%) were called active. Roughly 18% stayed inconclusive and do not appear here. This is one part of the list.
Exam item: assign 1 to entries whose normalized growth is below 1 and -1 to entries at or above 1. Note that a value of exactly 1 receives -1.

Record smiles: O=C(O/N=C1/CCCc2[nH]c3ccccc3c21)c1ccc(Cl)cc1Cl
Assigned label: 1

# input for lookup
Threshold test, normalized growth < 1: N#Cc1c(Cl)cccc1N1CCC(C(=O)NC(=O)Nc2ccc(Cl)cc2)CC1
-1

* * *

# Assay summary: chemical genetic growth profiling, strain panel (AID 1159580)
# Details: S. cerevisiae deletion strains, growth OD, locus YKL085W, strain MDH1 (second series)
Among all 5,500 compounds or so, about 2,000 (36%) were called active. About 18% were inconclusive and are not listed. No stated cut-off is given here; in the data, active means normalized growth mostly below about 0.91 (no sharp cut-off); inconclusive means no clear call, values can overlap the other calls; inactive means mostly above about 0.92. The list shows a part of the results.
Assign a class; possible classes are t = active, f = inactive

Compound: NS(=O)(=O)c1cc2c(cc1C(F)(F)F)NC(Cc1ccccc1)NS2(=O)=O (stereo not drawn)
Assigned label: f

Which outcome was assigned to C[C@@H](CO)NC(=O)C1C=C2c3cccc4[nH]cc(c34)C[C@H]2N(C)C1 (stereo partly drawn) in this test?
f

Please share the test call associated with CC(C)Nc1nc(Cl)nc(NC(C)C)n1 .
f

What was the test verdict on C[C@H]1[C@H](C)CC[C@]2(C(=O)O)CC[C@]3(C)C(=CCC4[C@@]5(C)C[C@@H](O)[C@H](O)[C@@](C)(CO)C5[C@H](O)C[C@]43C)[C@H]12 (stereo partly drawn) ?
t

Short answer needed: outcome of this test for CCCc1nn(C)c2c(=O)[nH]c(-c3cc(S(=O)(=O)N4CCN(C)CC4)ccc3OCC)nc12 ?
f

* * *

# Assay summary: chemical genetic growth profiling, strain panel (AID 1159580);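 further: tested at 20 µM; growth read once vehicle control cultures reached saturation at 30 °C; 1 = growth at the plate median or of vehicle wells; lower values mean less growth of the strain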
# Details: S. cerevisiae deletion strains, growth OD, locus YPL240C, strain hsp82
The campaign covered roughly 5,500 compounds. About 2,000 (36%) were called active. About 18% were inconclusive and are not listed. Cut-off read from the data, not from the text of the source: active = normalized growth mostly below about 0.91 (no sharp cut-off); inconclusive = no clear call, values can overlap the other calls; inactive = mostly above about 0.92. This is one part of the list.
Response enum: active, inactive

A selection of reference data follows.
Compound: O=C(/C=C(\O)c1ccccc1)c1ccccc1O
Assigned label: active

Compound: NC(=O)c1ccccc1O
Assigned label: inactive

Compound: O=c1c2cc(O)c(O)cc2oc2cc(O)c(C3O[C@H](CO)[C@H](O)[C@@H](O)[C@H]3O)c(O)c12 (some centres undefined)
Assigned label: inactive

Compound: CCC(=O)NCC[C@@H]1CCc2ccc3c(c21)CCO3
Assigned label: inactive

Compound: O=c1c(-c2ccc(O)cc2)coc2c(C3O[C@H](CO)[C@@H](O)[C@H](O)[C@H]3O)c(O)ccc12 (some centres undefined)
Assigned label: inactive

Compound: CCCc1nc(C)c2c(=O)[nH]c(-c3cc(S(=O)(=O)N4CCN(CC)CC4)ccc3OCC)nn12
Assigned label: inactive

Compound: CO[C@H]1[C@@H](O)[C@@H](C)O[C@H](O[C@H]2CCC3(C)C4CCC5(C)[C@@H](C6=CC(=O)OC6)CC[C@]5(O)[C@@H]4CC[C@]3(O)C2)[C@@H]1O (some centres undefined)
Assigned label: inactive

Compound: CCCc1nn(C)c2c(=O)[nH]c(-c3cc(S(=O)(=O)N4CCN(C)CC4)ccc3OCC)nc12
Assigned label: inactive

With those in mind, consider the next compound.
Hey, what did the test say about COc1c(O)cc2c(c1O)[C@H]1O[C@H](CO)[C@@H](O)[C@H](O)[C@@H]1OC2=O ?
inactive

* * *

# Assay summary: chemical genetic growth profiling, strain panel (AID 1159580);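 further: tested at 20 µM; growth read once vehicle control cultures reached saturation at 30 °C; 1 = growth at the plate median or of vehicle wells; lower values mean less growth of the strain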
# Details: S. cerevisiae deletion strains, growth OD, locus YOR070C, strain gyp1
About 2,000 (36%) of roughly 5,500 compounds were called active. Another 18% or so got no clear call; they are omitted. Cut-off read from the data, not from the text of the source: active = normalized growth mostly below about 0.91 (no sharp cut-off); inconclusive = no clear call, values can overlap the other calls; inactive = mostly above about 0.92. The list shows a part of the results.
Write down the outcome that applies. Available outcomes: yes (1) for active, no (0) for inactive

Compound: NC(=O)c1cc([N+](=O)[O-])cc([N+](=O)[O-])c1
Assigned label: no (0)

Check the results log: what was the call for NC(=O)c1ccccc1O ?
no (0)

What did this assay record as the result for CC[C@@]1(O)C(=O)OCc2c1cc1n(c2=O)Cc2cc3ccccc3nc2-1 ?
yes (1)

Write down the call the test reported for this compound. Item: O=C(Oc1cccc2cccnc12)c1ccccc1
yes (1)

* * *

# Assay summary: chemical genetic growth profiling, strain panel (AID 1159580);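 further: tested at 20 µM; growth read once vehicle control cultures reached saturation at 30 °C; 1 = growth at the plate median or of vehicle wells; lower values mean less growth of the strain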
# Details: S. cerevisiae deletion strains, growth OD, locus YDL101C, strain DUN1
The campaign covered roughly 5,500 compounds. About 2,000 (36%) were called active. Another 18% or so got no clear call; they are omitted. No stated cut-off is given here; in the data, active means normalized growth mostly below about 0.91 (no sharp cut-off); inconclusive means no clear call, values can overlap the other calls; inactive means mostly above about 0.92. This is one part of the list.
Your response should consist of one outcome taken from active, inactive

Molecule: O=C(Nc1ccc(SC(F)(F)F)cc1)Nc1ccc(Oc2cccc(C(F)(F)F)c2)nc1
Assigned label: inactive
//
Molecule: O=C(OCc1ccccc1Br)c1cc([N+](=O)[O-])cc([N+](=O)[O-])c1
Assigned label: inactive
//
Molecule: CC(C)(C)NC(=S)N/N=C\c1cc(Br)c(O)c(Br)c1
Assigned label: inactive
//
Molecule: CC[C@@]1(O)C(=O)OCc2c1cc1n(c2=O)Cc2cc3ccccc3nc2-1
Assigned label: active
//
Molecule: CC[C@H]1CN2CCC1C[C@@H]2[C@@H](O)c1ccnc2ccc(OC)cc12 (stereo not given in full)
Assigned label: inactive
//
Molecule: CC1(C)C(O)CC(=O)C2(C)C1CC(O)C1(C)C2CCC2(C)C(c3ccoc3)OC(=O)C3OC321 (stereo not given)
Assigned label: inactive

# outcome recorded in this test, key = NC(=O)c1cc([N+](=O)[O-])cc([N+](=O)[O-])c1
inactive

Can you look up the reported call for CCCc1nn(C)c2c(=O)[nH]c(-c3cc(S(=O)(=O)N4CCN(C)CC4)ccc3OCC)nc12 for me?
inactive

Lab log entry: NC(=O)c1ccc([N+](=O)[O-])cc1Cl — outcome as called in the assay?
inactive

How did this test come out for N#Cc1c(Cl)cccc1N1CCCC1 ?
active
